Values were extracted from patent US20220175942A1.

Target: T1, CCL22_HUMAN (human, UniProt O00626 25-93)
T1 chain: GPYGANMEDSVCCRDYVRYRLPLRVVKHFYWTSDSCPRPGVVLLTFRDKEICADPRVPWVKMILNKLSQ
Test: BLI
Property label: Kd (nM)
Please give a number only; it is taken to be in nM.

Q: Tell me the measured Kd of P974_AMBCA (other) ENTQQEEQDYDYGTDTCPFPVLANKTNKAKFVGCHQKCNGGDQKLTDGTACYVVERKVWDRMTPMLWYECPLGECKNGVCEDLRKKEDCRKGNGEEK , please.
Ans: 16.8

Q: Next record, please: P1243_AMBAM (other) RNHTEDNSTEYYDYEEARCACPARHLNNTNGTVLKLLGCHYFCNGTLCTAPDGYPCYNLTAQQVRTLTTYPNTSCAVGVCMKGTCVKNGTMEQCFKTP
Ans: 22.3

Q: Next record, please: P991_AMBCA (other) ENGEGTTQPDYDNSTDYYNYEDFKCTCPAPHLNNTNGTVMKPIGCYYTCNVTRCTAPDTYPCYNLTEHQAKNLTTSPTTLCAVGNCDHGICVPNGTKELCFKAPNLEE
Ans: 3.97

Q: Next record, please: P546_AMBCA (other) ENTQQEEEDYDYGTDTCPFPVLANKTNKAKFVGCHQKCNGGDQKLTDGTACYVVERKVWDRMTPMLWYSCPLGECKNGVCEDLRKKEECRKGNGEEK
Ans: 27
